Origin of measurements: the Immune Epitope Database (IEDB)

# target-entity: HLA-B*15:17
# procedure-text: IEDB peptide-MHC binding, purified MHC/direct/fluorescence; filed as Kd, often an IC50 or EC50 that approximates it; bounds were set here for any values at or beyond the usual limits of such assays
# condition-label: source organism: Influenza B virus
measured-property: Kd (µM)
One number for each entry, in µM.

# input Which Kd is reported with HLA-B*15:17 for this entry: KSEPEGTRM ?
# output 3.5

---

# target-entity: HLA-A*11:01
# procedure-text: IEDB peptide-MHC binding, purified MHC/direct/fluorescence; filed as Kd, often an IC50 or EC50 that approximates it; bounds were set here for any values at or beyond the usual limits of such assays
# condition-label: source organism: Yersinia enterocolitica
measured-property: pKd
Give bare numbers, as −log10 of the molar value.

# input Entry under review: YIFRNTINM . Reported pKd?
# output 5.11

---

# target-entity: HLA-B*51:01
# procedure-text: IEDB peptide-MHC binding, purified MHC/direct/fluorescence; filed as Kd, often an IC50 or EC50 that approximates it; bounds were set here for any values at or beyond the usual limits of such assays
# condition-label: source organism: Vibrio vulnificus CMCP6
pKd: −log10 of the molar value.
measured-property: pKd

# input Entry under review: TTILGLLPM . Reported pKd?
# output ≤ 4.70

---

# target-entity: HLA-A*02:01
# procedure-text: IEDB peptide-MHC binding, purified MHC/direct/fluorescence; filed as Kd, often an IC50 or EC50 that approximates it; bounds were set here for any values at or beyond the usual limits of such assays
# condition-label: source organism: Mammarenavirus brazilense
measured-property: Kd

# input Entry under review: EFKSRFFVM . Reported Kd?
# output ≥ 20 µM

---

# target-entity: HLA-C*05:01
# procedure-text: IEDB peptide-MHC binding, purified MHC/direct/fluorescence; filed as Kd, often an IC50 or EC50 that approximates it; bounds were set here for any values at or beyond the usual limits of such assays
# condition-label: source organism: Mycobacterium tuberculosis variant bovis BCG str. Pasteur 1173P2
pKd: −log10 of the molar value.
measured-property: pKd

# input Which pKd is reported with HLA-C*05:01 for this entry: RQDEVGTPF ?
# output ≥ 9.00

---

# target-entity: HLA-B*18:01
# procedure-text: IEDB peptide-MHC binding, purified MHC/direct/fluorescence; filed as Kd, often an IC50 or EC50 that approximates it; bounds were set here for any values at or beyond the usual limits of such assays
# condition-label: source organism: Camelpox virus CMS
measured-property: Kd (nM)
Give bare numbers, in nM.

# input Entry under review: MPAYIRNTL . Reported Kd?
# output 2820

---

For each record, write down the corresponding Kd.
# target-entity: HLA-B*15:01
# procedure-text: IEDB peptide-MHC binding, purified MHC/direct/fluorescence; filed as Kd, often an IC50 or EC50 that approximates it; bounds were set here for any values at or beyond the usual limits of such assays
# condition-label: source organism: Mycobacterium tuberculosis

Each sequence below has a reported value. Please supply its Kd.
1. RPPMVTSGL
2. MPRLSRNAA
3. SMRFESSPH

# output
["≥ 20 µM", "≥ 20 µM", "0.0093 µM"]

---

# target-entity: HLA-B*18:01
# procedure-text: IEDB peptide-MHC binding, purified MHC/direct/fluorescence; filed as Kd, often an IC50 or EC50 that approximates it; bounds were set here for any values at or beyond the usual limits of such assays
# condition-label: source organism: Yellow fever virus
measured-property: Kd

# input Entry under review: SSARYDVAL . Reported Kd?
# output ≥ 20 µM

---

# target-entity: HLA-A*03:01
# procedure-text: IEDB peptide-MHC binding, purified MHC/competitive/radioactivity; filed as Kd, often an IC50 or EC50 that approximates it; bounds were set here for any values at or beyond the usual limits of such assays
# condition-label: source organism: Homo sapiens
measured-property: Kd (nM)
Answers are plain numbers, in nM.

# input Entry under review: VVGAGGVGK . Reported Kd?
# output 125

---

# target-entity: HLA-A*03:01
# procedure-text: IEDB peptide-MHC binding, purified MHC/direct/fluorescence; filed as Kd, often an IC50 or EC50 that approximates it; bounds were set here for any values at or beyond the usual limits of such assays
# condition-label: source organism: Camelpox virus CMS
measured-property: Kd (nM)
Give bare numbers, in nM.

# input Entry under review: LMYPTTLLK . Reported Kd?
# output 4.5

---

# target-entity: HLA-A*02:01
# procedure-text: IEDB peptide-MHC binding, purified MHC/competitive/fluorescence; filed as Kd, often an IC50 or EC50 that approximates it; bounds were set here for any values at or beyond the usual limits of such assays
# condition-label: source organism: Human immunodeficiency virus 1
measured-property: pKd
Give bare numbers, as −log10 of the molar value.

# input Which pKd is reported with HLA-A*02:01 for this entry: VLYCVHQRV ?
# output 8.01

---

# target-entity: HLA-B*27:05
# procedure-text: IEDB peptide-MHC binding, purified MHC/direct/fluorescence; filed as Kd, often an IC50 or EC50 that approximates it; bounds were set here for any values at or beyond the usual limits of such assays
# condition-label: source organism: Salmonella enterica subsp. enterica serovar Typhimurium
measured-property: Kd

# input Entry under review: NSDYMMWVG . Reported Kd?
# output ≥ 20 µM

---

# target-entity: HLA-A*02:19
# procedure-text: IEDB peptide-MHC binding, purified MHC/direct/fluorescence; filed as Kd, often an IC50 or EC50 that approximates it; bounds were set here for any values at or beyond the usual limits of such assays
# condition-label: source organism: Choclo virus
measured-property: Kd

# input Entry under review: KACDLAMCY . Reported Kd?
# output ≥ 20 µM

---

For each record, write down the corresponding Kd.
# target-entity: HLA-B*27:05
# procedure-text: IEDB peptide-MHC binding, purified MHC/direct/fluorescence; filed as Kd, often an IC50 or EC50 that approximates it; bounds were set here for any values at or beyond the usual limits of such assays
# condition-label: source organism: Giardia lamblia ATCC 50803

Use the examples below as a reference point.
EIRHRSGIQ ... ≥ 20 µM
IARLVYKAR ... ≥ 20 µM

# input Which Kd is reported with HLA-B*27:05 for this entry: WSDLNTTDF ?
# output ≥ 20 µM

---

# target-entity: HLA-B*35:01
# procedure-text: IEDB peptide-MHC binding, purified MHC/competitive/radioactivity; filed as Kd, often an IC50 or EC50 that approximates it; bounds were set here for any values at or beyond the usual limits of such assays
# condition-label: source organism: Mammarenavirus juninense
measured-property: Kd (nM)
Give bare numbers, in nM.

# input Entry under review: HPDMDSMMI . Reported Kd?
# output 1490

---

# target-entity: HLA-A*26:01
# procedure-text: IEDB peptide-MHC binding, purified MHC/competitive/fluorescence; filed as Kd, often an IC50 or EC50 that approximates it; bounds were set here for any values at or beyond the usual limits of such assays
# condition-label: source organism: Bacillus anthracis str. A0488
measured-property: pKd
Give bare numbers, as −log10 of the molar value.

# input Entry under review: HIVYAVPLM . Reported pKd?
# output 8.09

---

# target-entity: HLA-B*46:01
# procedure-text: IEDB peptide-MHC binding, purified MHC/direct/fluorescence; filed as Kd, often an IC50 or EC50 that approximates it; bounds were set here for any values at or beyond the usual limits of such assays
# condition-label: source organism: Mammarenavirus brazilense
measured-property: Kd

# input Which Kd is reported with HLA-B*46:01 for this entry: EFKSRFFVM ?
# output ≥ 20 µM

---

# target-entity: HLA-B*07:02
# procedure-text: IEDB peptide-MHC binding, purified MHC/direct/fluorescence; filed as Kd, often an IC50 or EC50 that approximates it; bounds were set here for any values at or beyond the usual limits of such assays
# condition-label: source organism: Camelpox virus M-96
For each record, write down the corresponding Kd.

LLRDKDGVY ... ≥ 20 µM

Could you now consider this next sequence?
# input Which Kd is reported with HLA-B*07:02 for this entry: WENGFKVVL ?
# output ≥ 20 µM

---

# target-entity: HLA-B*39:01
# procedure-text: IEDB peptide-MHC binding, purified MHC/competitive/fluorescence; filed as Kd, often an IC50 or EC50 that approximates it; bounds were set here for any values at or beyond the usual limits of such assays
# condition-label: source organism: Escherichia coli O157:H7 str. EDL933
measured-property: Kd (µM)
Give bare numbers, in µM.

# input Entry under review: RMMGVKYLM . Reported Kd?
# output 2.19

---

# target-entity: HLA-A*26:02
# procedure-text: IEDB peptide-MHC binding, purified MHC/direct/fluorescence; filed as Kd, often an IC50 or EC50 that approximates it; bounds were set here for any values at or beyond the usual limits of such assays
# condition-label: source organism: Salmonella enterica subsp. enterica serovar Typhimurium str. LT2
measured-property: Kd

# input Entry under review: EIIFYHPTF . Reported Kd?
# output ≤ 1 nM
